tested on: Staphylococcus epidermidis; assay: Antibacterial activity against Staphylococcus epidermidis ATCC 12228 after 18 to 20 hrs by two-fold microbroth dilution method; type: functional
EXPERIMENTAL ENDPOINT: MIC (µM)
Enter your answer as a number in µM; do not include the unit.

Which MIC value is on record for `CC(=O)OC[C@H]1O[C@@H](NC(=S)N/N=C2/C(=O)Nc3ccc(Cl)cc32)[C@H](OC(C)=O)[C@@H](OC(C)=O)[C@@H]1OC(C)=O` ?
6.25

Field entry: `CC(=O)OC[C@H]1O[C@@H](NC(=S)N/N=C2/C(=O)N(CCc3ccccc3)c3ccccc32)[C@H](OC(C)=O)[C@@H](OC(C)=O)[C@@H]1OC(C)=O`
200

Would you mind doing `O=C(O)c1cn(C2CC2)c2cc(N3CCNCC3)c(F)cc2c1=O` as well?
3.12

Next: `CC(=O)OC[C@H]1O[C@@H](NC(=S)N/N=C2/C(=O)Nc3ccccc32)[C@H](OC(C)=O)[C@@H](OC(C)=O)[C@@H]1OC(C)=O`
100

// query: `CC(=O)OC[C@H]1O[C@@H](NC(=S)N/N=C2/C(=O)Nc3ccc(Br)cc32)[C@H](OC(C)=O)[C@@H](OC(C)=O)[C@@H]1OC(C)=O`
6.25

Likewise for `CC(=O)OC[C@H]1O[C@@H](NC(=S)N/N=C2/C(=O)N(CC(C)C)c3ccccc32)[C@H](OC(C)=O)[C@@H](OC(C)=O)[C@@H]1OC(C)=O` ?
100

---

Provide the recorded Activity for the entries that follow.
system: Rattus norvegicus; experiment: Antioxidant activity in CCL4-intoxicated Wistar albino rat assessed as liver cytosolic catalase activity per mg protein at 100 mg/kg, ip administered for 7 consecutive days after DL-alpha-tocopherol acetate treatment followed by CCL4 dosing measured after 24 hrs by H2O2 based assay (reference value: 220.15 +/- 11.43 U); format: functional
Form entry: value (U) — number only.

Return reported Activity; argument: `CC(=O)OC[C@H]1O[C@@H](NC(=S)N/N=C2/C(=O)N(Cc3ccccc3)c3ccccc32)[C@H](OC(C)=O)[C@@H](OC(C)=O)[C@@H]1OC(C)=O`
250.63

Now the compound `CCCCN1C(=O)/C(=N/NC(=S)N[C@@H]2O[C@H](COC(C)=O)[C@@H](OC(C)=O)[C@H](OC(C)=O)[C@H]2OC(C)=O)c2ccccc21`
377.61

Now the same for `CC(=O)OC[C@H]1O[C@@H](NC(=S)N/N=C2/C(=O)N(C)c3ccccc32)[C@H](OC(C)=O)[C@@H](OC(C)=O)[C@@H]1OC(C)=O`
350

---

assay: Cytotoxicity against human Lu1 cells after 3 days by MTT assay; assay type: functional, cell-based; conditions: Lu1, 72 h
EXPERIMENTAL ENDPOINT: pIC50
Formally, pIC50 is defined as -log10 of the concentration c, with c in mol/L.

Endpoint output: pIC50 of `CC(=O)OC[C@H]1O[C@@H](NC(=S)N/N=C2/C(=O)Nc3c(Br)cc(Br)cc32)[C@H](OC(C)=O)[C@@H](OC(C)=O)[C@@H]1OC(C)=O` . Value?
5.26

Another molecule: `Cc1c2ccncc2c(C)c2c1[nH]c1ccccc12`
5.86

---

Could you please report measured MIC for the items listed next?
test system: Escherichia coli; experiment: Antibacterial activity against Escherichia coli ATCC 25922 after 18 to 20 hrs by two-fold microbroth dilution method; type: functional
Enter your answer as a number in µM; do not include the unit.

Reported MIC for `CC(=O)OC[C@H]1O[C@@H](NC(=S)N/N=C2/C(=O)Nc3ccc(Br)cc32)[C@H](OC(C)=O)[C@@H](OC(C)=O)[C@@H]1OC(C)=O` : what is it?
50

Request: `CC(=O)OC[C@H]1O[C@@H](NC(=S)N/N=C2/C(=O)Nc3ccc([N+](=O)[O-])cc32)[C@H](OC(C)=O)[C@@H](OC(C)=O)[C@@H]1OC(C)=O`
50

Another molecule to look at: `CC(=O)OC[C@H]1O[C@@H](NC(=S)N/N=C2/C(=O)Nc3c(Br)cc(Br)cc32)[C@H](OC(C)=O)[C@@H](OC(C)=O)[C@@H]1OC(C)=O`
50

Could you do the same for `CC(=O)OC[C@H]1O[C@@H](NC(=S)N/N=C2/C(=O)Nc3ccc(Cl)cc32)[C@H](OC(C)=O)[C@@H](OC(C)=O)[C@@H]1OC(C)=O` , please?
50

Would you mind doing `CCCN1C(=O)/C(=N/NC(=S)N[C@@H]2O[C@H](COC(C)=O)[C@@H](OC(C)=O)[C@H](OC(C)=O)[C@H]2OC(C)=O)c2ccccc21` as well?
12.5

Same thing, different molecule: `CC(=O)OC[C@H]1O[C@@H](NC(=S)N/N=C2/C(=O)Nc3ccc(F)cc32)[C@H](OC(C)=O)[C@@H](OC(C)=O)[C@@H]1OC(C)=O`
50

---

Hi there, I'd appreciate the recorded log10(MIC) for every entry that follows.
system: Klebsiella aerogenes; experiment: Antibacterial activity against Enterobacter aerogenes ATCC 13048 after 18 to 20 hrs by two-fold microbroth dilution method; format: functional
All values: log10 MIC [µM].

log10(MIC) lookup needed for `CCN1C(=O)/C(=N/NC(=S)N[C@@H]2O[C@H](COC(C)=O)[C@@H](OC(C)=O)[C@H](OC(C)=O)[C@H]2OC(C)=O)c2ccccc21` , thanks.
1.10

Another: `CCCN1C(=O)/C(=N/NC(=S)N[C@@H]2O[C@H](COC(C)=O)[C@@H](OC(C)=O)[C@H](OC(C)=O)[C@H]2OC(C)=O)c2ccccc21`
1.10

One more molecule: `CC(=O)OC[C@H]1O[C@@H](NC(=S)N/N=C2/C(=O)Nc3c2cc(Br)cc3[N+](=O)[O-])[C@H](OC(C)=O)[C@@H](OC(C)=O)[C@@H]1OC(C)=O`
1.40

Please do the same for O=C(O)c1cn(C2CC2)c2cc(N3CCNCC3)c(F)cc2c1=O [CIPROFLOXACIN] as well.
0.19

Entry `CC(=O)OC[C@H]1O[C@@H](NC(=S)N/N=C2/C(=O)Nc3ccc(C(C)C)cc32)[C@H](OC(C)=O)[C@@H](OC(C)=O)[C@@H]1OC(C)=O` please
1.70

What about this molecule? `CC(=O)OC[C@H]1O[C@@H](NC(=S)N/N=C2/C(=O)N(CCc3ccccc3)c3ccccc32)[C@H](OC(C)=O)[C@@H](OC(C)=O)[C@@H]1OC(C)=O`
2.00

Then what about the molecule `CC(=O)OC[C@H]1O[C@@H](NC(=S)N/N=C2/C(=O)Nc3c(C)cccc32)[C@H](OC(C)=O)[C@@H](OC(C)=O)[C@@H]1OC(C)=O` ?
1.40

What do we get for `C=CCN1C(=O)/C(=N/NC(=S)N[C@@H]2O[C@H](COC(C)=O)[C@@H](OC(C)=O)[C@H](OC(C)=O)[C@H]2OC(C)=O)c2ccccc21` ?
2.00

What do you get for `CC(=O)OC[C@H]1O[C@@H](NC(=S)N/N=C2/C(=O)Nc3ccc(F)cc32)[C@H](OC(C)=O)[C@@H](OC(C)=O)[C@@H]1OC(C)=O` ?
1.70

Let us now turn to `CC(=O)OC[C@H]1O[C@@H](NC(=S)N/N=C2/C(=O)N(Cc3ccccc3)c3ccccc32)[C@H](OC(C)=O)[C@@H](OC(C)=O)[C@@H]1OC(C)=O`
2.00

Also `CC(=O)OC[C@H]1O[C@@H](NC(=S)N/N=C2/C(=O)N(CC(C)C)c3ccccc32)[C@H](OC(C)=O)[C@@H](OC(C)=O)[C@@H]1OC(C)=O` , if possible.
1.10

Request: `CC(=O)OC[C@H]1O[C@@H](NC(=S)N/N=C2/C(=O)N(C)c3ccccc32)[C@H](OC(C)=O)[C@@H](OC(C)=O)[C@@H]1OC(C)=O`
1.10

Same read-out for `CC(=O)OC[C@H]1O[C@@H](NC(=S)N/N=C2/C(=O)Nc3c2cc(Cl)cc3[N+](=O)[O-])[C@H](OC(C)=O)[C@@H](OC(C)=O)[C@@H]1OC(C)=O` ?
1.40

Now consider `CC(=O)OC[C@H]1O[C@@H](NC(=S)N/N=C2/C(=O)Nc3ccc(C)cc32)[C@H](OC(C)=O)[C@@H](OC(C)=O)[C@@H]1OC(C)=O` and answer again.
1.40

Entry `CC(=O)OC[C@H]1O[C@@H](NC(=S)N/N=C2/C(=O)Nc3ccc(I)cc32)[C@H](OC(C)=O)[C@@H](OC(C)=O)[C@@H]1OC(C)=O` please
1.70

Would you mind doing `CC(=O)OC[C@H]1O[C@@H](NC(=S)N/N=C2/C(=O)Nc3ccccc32)[C@H](OC(C)=O)[C@@H](OC(C)=O)[C@@H]1OC(C)=O` as well?
1.70

Input `CC(=O)OC[C@H]1O[C@@H](NC(=S)N/N=C2/C(=O)Nc3ccc([N+](=O)[O-])cc32)[C@H](OC(C)=O)[C@@H](OC(C)=O)[C@@H]1OC(C)=O`
1.70

Now the same for `CC(=O)OC[C@H]1O[C@@H](NC(=S)N/N=C2/C(=O)Nc3ccc(Cl)cc32)[C@H](OC(C)=O)[C@@H](OC(C)=O)[C@@H]1OC(C)=O`
1.70
